Some binders, each annotated with its measured Binding Ratio (GFP + MFI)/(GFP - MFI).
Target: T1, cynomolgus CCR8 (cynomolgus, UniProt G7NYJ2 1-355)
T1 construct: whole, on cells; also called HEK293-Cynomolgus CCR8; ExpiCHO-S cynomolgus CCR8
T1 sequence (G7NYJ2 entry or part of it): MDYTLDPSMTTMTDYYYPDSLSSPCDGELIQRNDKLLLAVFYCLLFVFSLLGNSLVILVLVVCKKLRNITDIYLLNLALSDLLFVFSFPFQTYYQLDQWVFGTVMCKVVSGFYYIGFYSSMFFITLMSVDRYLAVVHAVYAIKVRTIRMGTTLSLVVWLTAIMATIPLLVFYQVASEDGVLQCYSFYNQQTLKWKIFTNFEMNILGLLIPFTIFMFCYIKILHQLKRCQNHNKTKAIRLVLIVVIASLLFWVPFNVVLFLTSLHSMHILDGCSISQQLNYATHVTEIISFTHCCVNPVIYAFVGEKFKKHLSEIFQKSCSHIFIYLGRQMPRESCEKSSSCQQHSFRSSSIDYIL
Assay: FACS, hybridoma supernatant on cynomolgus CCR8 cells
Lab note: write the figure by itself, no unit.

149F2C10 (antibody, V domains shown, also called 1491F2C0) VH: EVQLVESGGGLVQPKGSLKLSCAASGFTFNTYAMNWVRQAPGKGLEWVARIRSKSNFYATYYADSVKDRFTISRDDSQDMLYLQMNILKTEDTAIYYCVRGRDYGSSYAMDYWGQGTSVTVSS VL: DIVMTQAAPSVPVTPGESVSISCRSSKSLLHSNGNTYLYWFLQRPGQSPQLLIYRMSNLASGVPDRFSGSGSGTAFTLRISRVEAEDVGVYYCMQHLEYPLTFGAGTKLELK : 98.2

Now consider the entry below.
What Binding Ratio (GFP + MFI)/(GFP - MFI) value was documented for this binder, 164G10D6 (antibody, V domains shown, Murine hybridoma antibody; also called 164G10C6) VH: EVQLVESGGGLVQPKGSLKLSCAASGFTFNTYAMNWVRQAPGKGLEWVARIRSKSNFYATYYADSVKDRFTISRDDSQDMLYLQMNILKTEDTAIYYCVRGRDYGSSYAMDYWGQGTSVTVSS VL: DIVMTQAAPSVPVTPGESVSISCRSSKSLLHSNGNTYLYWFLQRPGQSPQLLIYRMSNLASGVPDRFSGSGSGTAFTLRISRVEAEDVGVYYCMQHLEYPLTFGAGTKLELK ?
102
